Numbers sourced from the supplement of paper PMC10567573.

B1: ZBED1 (parent)
chain: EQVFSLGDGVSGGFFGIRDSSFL

Variants of: B1
method description: protein stability index of a GFP-peptide fusion (GPS, HEK-293T) (PSI 1-6); higher = more stable;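 further: lentivirally expressed fusions sorted by FACS into six bins by GFP to DsRed ratio, PSI derived from sequencing read proportions per bin multiplied by bin number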
experimental conditions: c terminus: native
I would appreciate it if you labelled entries Met when protein stability index is 3 or higher, otherwise Not met.

>  <residues>
EQVFSLGDGVEGGFFGIRDSSFL [S11E]

>  <assigned label>
Met

$$$$
>  <residues>
EPVFSLGDGVSGGFFGIRDSSFL [Q2P]

>  <assigned label>
Met

$$$$
>  <residues>
EQVFSLMDGVSGGFFGIRDSSFL [G7M]

>  <assigned label>
Not met

$$$$
>  <residues>
EQVFSLGDGVSGGFFGIRDSSNL [F22N]

>  <assigned label>
Met

$$$$
>  <residues>
EQVFSLGDGVKGGFFGIRDSSFL [S11K]

>  <assigned label>
Met

$$$$
>  <residues>
EQVFSLGDGVSGGFFGIRDSSFS [L23S]

>  <assigned label>
Met

$$$$
>  <residues>
EQVFSLGHGVSGGFFGIRDSSFL [D8H]

>  <assigned label>
Not met

$$$$
>  <residues>
EQVFSLGDGVSGGFFGIRDSSFG [L23G]

>  <assigned label>
Not met

$$$$
>  <residues>
EQVFSLGDGVSGGFFGCRDSSFL [I17C]

>  <assigned label>
Met

$$$$
>  <residues>
EQVFSLGDGPSGGFFGIRDSSFL [V10P]

>  <assigned label>
Met

$$$$
>  <residues>
EQVMSLGDGVSGGFFGIRDSSFL [F4M]

>  <assigned label>
Met

$$$$
>  <residues>
EQVFSLGDGVSGIFFGIRDSSFL [G13I]

>  <assigned label>
Not met

$$$$
>  <residues>
VQVFSLGDGVSGGFFGIRDSSFL [E1V]

>  <assigned label>
Met

$$$$
>  <residues>
EQVFPLGDGVSGGFFGIRDSSFL [S5P]

>  <assigned label>
Met

$$$$
>  <residues>
EQVFSLGYGVSGGFFGIRDSSFL [D8Y]

>  <assigned label>
Not met

$$$$
>  <residues>
RQVFSLGDGVSGGFFGIRDSSFL [E1R]

>  <assigned label>
Not met

$$$$
>  <residues>
EQVFSLGDGVSPGFFGIRDSSFL [G12P]

>  <assigned label>
Met

$$$$
>  <residues>
EQVFSLGRGVSGGFFGIRDSSFL [D8R]

>  <assigned label>
Not met

$$$$
>  <residues>
EQVFSLGKGVSGGFFGIRDSSFL [D8K]

>  <assigned label>
Not met

$$$$
